# tgt: T1, N-terminal domain of hCD73 (residues 26-336 of human CD73), His-tagged (human, UniProt P21589 26-336)
# T1 construct: also called N-hCD73; N-hCD73-his
# T1 sequence: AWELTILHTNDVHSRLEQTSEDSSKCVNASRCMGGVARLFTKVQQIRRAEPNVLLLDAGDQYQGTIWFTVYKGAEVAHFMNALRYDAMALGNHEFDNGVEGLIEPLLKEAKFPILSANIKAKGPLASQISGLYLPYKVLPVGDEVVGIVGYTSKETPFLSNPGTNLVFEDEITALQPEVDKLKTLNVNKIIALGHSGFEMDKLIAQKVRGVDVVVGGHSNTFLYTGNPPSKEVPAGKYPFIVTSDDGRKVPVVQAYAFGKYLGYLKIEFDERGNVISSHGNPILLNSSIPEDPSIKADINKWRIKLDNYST
# run_description: SPR, mAb captured on protein A
Record form. Attribute: koff. Fill in for each entry.
Form entry: value (s⁻¹) — number only.

# koff (binder: 5F8 (antibody, human IgG1, kappa, V domains shown, IgG1za from hybridoma; predominant light chain VK1, VK2 also expressed; also called 5F8-1) VH: EVQLVESGGGLVQPGGSLRLSCAASGFTFSSYWMHWVRQAPGKGLVWVSRIISDGSSTGYADSVKGRFTISRDNAKNTLYLQMNSLRAEDTAVYYCAREFSSGWYFDYWGQGTLVTVSS VL: AIQLTQSPSSLSASVGDRVTITCRASQGISSALAWYQQKPGKAPKLLIYDASSLESGVPSRFSGSGSGTDFTLTISSLQPEDFATYYCQQFSSYPRTFGQGTKVEIKR ) is 0.006

Please fill in: koff reported for 7A11 (antibody, human IgG1, kappa, V domains shown, IgG1za from hybridoma; also called 7A11-1) VH: EVQLVESGGGLVQTGRSLRLSCAASGFTFDDYAMHWVRQAPGKGLEWVSDISWNSDIIGYADSVKGRFTISRDNAKNSLYLQMNSLRAEDTALYYCAKDIYGSGSSFFDYWGQGILVTVSS VL: DIQMTQSPSSLSASVGDRVTITCRASQYISSWLAWYQQKPEKAPKSLIYAASSLQSGVPSRFSGSGSGTDFTLTISSLQPEDFATYYCQQYHSYPPTFGQGTRLEIKR = 0.00038

Query 24H2 (antibody, human IgG4, kappa, V domains shown, also called 24H2-1) VH: QVQLVESGGGVVQPGRSLRLSCAASGFTFSNYGMHWVRQAPGKGLEWVAVIWYDGGNKYYADSVKGRFTISRDNSKNTLFLQMNSLRAEDTAVYYCARGGSSWYPDAFDIWGQGTMVTVSS VL: DIQMTQSPSSLSASVGDRVTITCRASQGISSWLAWYQQKPEKAPKSLIYAASSLQSGVPSRFSGSGSGTDFTLTISSLQPEDFATYYCQQYNSYPLTFGGGTKVEIKR yields koff of 0.0032

Data credit: patent US20230051701A1
